system: TNF-α; assay: LPS-induced TNF-α release from hPBMCs (ELISA); format: cell-based; conditions: Homo sapiens; LPS-induced release from hPBMCs (Table 1A); read-out: IC50 TNF-α
measured endpoint: IC50 (nM)
Give the quantity in nM, number only.

Can you look up the measured IC50 of CN1CC[C@@H](c2c(O)cc(O)c3c(=O)cc(-c4ccc(C(F)(F)F)cc4Cl)oc23)[C@@H]1CO.Cl [Compound of example 3, hydrochloride] for me?
1000

* * *

tested on: TNF-α; experiment: Spontaneous TNF-α release from synovial cells of RA patients; format: cell-based; details: Homo sapiens, Synovial cell, freshly isolated synovial cells from RA patients, 16 hours
measured endpoint: pIC50
// returns pIC50 (minus log10 of molar concentration), number only

Can you look up the measured pIC50 of CN1CC[C@@H](c2c(O)cc(O)c3c(=O)cc(-c4ccc(C(F)(F)F)cc4Cl)oc23)[C@@H]1CO.Cl [Compound of example 3, hydrochloride] for me?
4.70
